Collected pIC50 for Tyrosine-protein kinase JAK3 (Homo sapiens, UniProt P52333) across several studies; compounds listed below.
# pIC50 = -log10(concentration in molar units)

// pIC50 value for C=CC(=O)N1CC(Oc2nn(C(C)(C)C)c3ncnc(N)c23)C1 : 7.23

Lab book: pIC50 of Cn1cc(Nc2ncc(Cl)c(Nc3cccc(NC(=O)/C=C/c4ccccc4)c3)n2)cn1 noted as 8.10

Form field pIC50, entry C=CC(=O)Nc1cccc(Nc2nc(Nc3ccc(N4CCN(C(C)=O)CC4)cc3OC)ncc2C(F)(F)F)c1 : 8.37

Item: Cl.Cn1cc(-c2ccnc(Nc3cccc(N)c3)n2)c2ccccc21 | pIC50: 7.56

The compound CNCCCn1c2ccccc2c2c3cn[nH]c3c3c4ccccc4[nH]c3c21 showed pIC50 equal to 7.39

Field pIC50 (entry CCC(=O)Nc1cccc(Nc2nc(Nc3cnn(C)c3)ncc2Cl)c1 ) reads 7.50
